Readings of pEC50 for the listed compounds
# study.target: glucokinase (GK), residues 12-465 of the human enzyme (Homo sapiens, UniProt P35557)
# Construct: I.D. No. 1 corresponds to residues 12-465 of glucokinase; made in house; host or cells: E. coli DH10b-Tlr
# Sequence (P35557 with tags, fused parts or gaps isoform P35557-2): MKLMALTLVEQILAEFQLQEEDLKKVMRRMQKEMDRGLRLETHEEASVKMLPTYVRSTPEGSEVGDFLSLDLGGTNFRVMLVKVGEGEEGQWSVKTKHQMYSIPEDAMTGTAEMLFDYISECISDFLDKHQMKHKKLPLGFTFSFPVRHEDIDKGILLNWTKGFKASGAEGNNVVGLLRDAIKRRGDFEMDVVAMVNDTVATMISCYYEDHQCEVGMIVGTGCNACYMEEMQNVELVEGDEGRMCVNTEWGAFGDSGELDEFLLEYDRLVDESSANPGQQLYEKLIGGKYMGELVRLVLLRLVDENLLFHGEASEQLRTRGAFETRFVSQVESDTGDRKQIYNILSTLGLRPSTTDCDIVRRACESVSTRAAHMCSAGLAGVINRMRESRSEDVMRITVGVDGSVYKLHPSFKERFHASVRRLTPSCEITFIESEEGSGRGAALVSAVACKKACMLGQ
# test.method.notes: Enzymatic glucokinase activity assay (KinaseGlo luminescence, ATP consumption)
# Assay type: biochemical
# condition.info: GK activation; 5 μM ATP, 5 mM Glucose; Kact = concentration giving 50% of the maximal increase in GK activity; read-out: pKact
# From the text: The activity of compounds as glucokinase activators may be assayed in vitro, in vivo or in a cell line. Provided below is an enzymatic glucokinase activity assay. Purified glucokinase may be obtained as follows. […] Recombinant protein may be isolated from cellular extracts by passage over Sepharose Q Fast Flow resin (Pharmacia). […] The purity of GK may be determined on denaturing SDS-PAGE gel. […]
pEC50: −log10 of the molar value.

[[record]]
chem_smiles = "O=C(Nc1nccs1)[C@H](CC1CCCCC1)N1CCN(S(=O)(=O)c2ccc3c(c2)CCO3)CC1=O"
measurement_label = "pEC50"
measured_value = "5.90 to 6.10"

[[record]]
chem_smiles = "O=C(Nc1nccs1)[C@H](CC1CCCCC1)N1CCN(C(=S)NCc2ccco2)CC1=O"
measurement_label = "pEC50"
measured_value = "5.90 to 6.10"

[[record]]
chem_smiles = "O=C(Nc1nccs1)[C@H](CC1CCCCC1)N1CCN(S(=O)(=O)c2cccc(Cl)c2F)CC1=O"
measurement_label = "pEC50"
measured_value = "≥ 6.20"

[[record]]
chem_smiles = "O=C(Nc1nccs1)[C@H](CC1CCCCC1)N1CCN(S(=O)(=O)c2cccc3cccnc23)CC1=O"
measurement_label = "pEC50"
measured_value = "5.90 to 6.10"

[[record]]
chem_smiles = "O=C(Nc1nccs1)[C@H](CC1CCCCC1)N1CCN(S(=O)(=O)c2cc(Cl)ccc2Cl)CC1=O"
measurement_label = "pEC50"
measured_value = "5.90 to 6.10"


[Q] Item: CNC(=O)Nc1ccc(S(=O)(=O)N2CCN([C@@H](CC3CCCCC3)C(=O)Nc3nccs3)C(=O)C2)cc1Cl Test system: glucokinase (GK), residues 12-465 of the human enzyme (Homo sapiens, UniProt P35557) Read-out: pEC50 Value: ?
[A] 5.60 to 5.80

[Q] Observed pEC50 on glucokinase (GK), residues 12-465 of the human enzyme (Homo sapiens, UniProt P35557) for CC(=O)Nc1ccc(S(=O)(=O)N2CCN([C@@H](CC3CCCCC3)C(=O)Nc3nccs3)C(=O)C2)cc1 , please.
[A] ≤ 5.50

----------
# study.target: glucokinase (GK), residues 12-465 of the human enzyme (Homo sapiens, UniProt P35557)
# Construct: I.D. No. 1 corresponds to residues 12-465 of glucokinase
# test.method.notes: Enzymatic glucokinase activity assay (KinaseGlo luminescence, ATP consumption)
# condition.info: GK activation; 5 μM ATP, 5 mM Glucose; Kact = concentration giving 50% of the maximal increase in GK activity; read-out: pKact
EC50 by entry:

Known results for molecules:
[[record]]
chem_smiles = "O=C(Nc1nccs1)[C@H](CC1CCCCC1)N1CCN(S(=O)(=O)c2ccco2)CC1=O"
measurement_label = "EC50"
measured_value = "≤ 0.631 µM"

[[record]]
chem_smiles = "COc1cccc(C[C@@H](C(=O)Nc2nccs2)N2CCN(S(=O)(=O)C3CC3)CC2=O)c1"
measurement_label = "EC50"
measured_value = "1.58 to 2.51 µM"

[[record]]
chem_smiles = "Cc1c(Cl)cc(F)cc1S(=O)(=O)N1CCN([C@@H](CC2CCCCC2)C(=O)Nc2nccs2)C(=O)C1"
measurement_label = "EC50"
measured_value = "≤ 0.631 µM"

[[record]]
chem_smiles = "O=C(Nc1nccs1)[C@H](CC1CCCCC1)N1CCN(S(=O)(=O)c2cc(F)c(Cl)cc2F)CC1=O"
measurement_label = "EC50"
measured_value = "0.794 to 1.26 µM"

[[record]]
chem_smiles = "Cc1nn(C)c(Cl)c1S(=O)(=O)N1CCN([C@@H](CC2CCCCC2)C(=O)Nc2nccs2)C(=O)C1"
measurement_label = "EC50"
measured_value = "1.58 to 2.51 µM"

[[record]]
chem_smiles = "O=C(Nc1nccs1)[C@H](CC1CCCCC1)N1CCN(S(=O)(=O)c2cnc(Cl)c(Br)c2)CC1=O"
measurement_label = "EC50"
measured_value = "1.58 to 2.51 µM"


Continue with the molecule presented below.
[Q] GET /values?readout=EC50&system=glucokinase (GK), residues 12-465 of the human enzyme (Homo sapiens, UniProt P35557)&item= Cc1cc(C)cc(S(=O)(=O)N2CCN([C@@H](CC3CCCCC3)C(=O)Nc3nccs3)C(=O)C2)c1
[A] ≤ 0.631 µM

Provenance of the data: patent US8173645B2
